Conditions: [M+H]+; instrument: TW; calibrated with polyalanine and drug standards
Please enter YES where collision cross section (N2) is greater than or equal to 200 Å², and NO where it is lower.

Exercise: Quick check, collision cross section (N2) >= 200 Å²? CC1=CC(=O)C2=C(C)CC[C@@H]3[C@H](OC(=O)[C@H]3C)[C@@H]12
Solution: NO

Exercise: Quick check, collision cross section (N2) >= 200 Å²? C[C@@H]1O[C@@H](O[C@H]2[C@H](O[C@H]3CC[C@@]4(C)[C@@H](CC[C@]5(C)[C@@H]4CC=C4[C@@H]6CC(C)(C)CC[C@]6(C(=O)O[C@@H]6O[C@H](CO[C@@H]7O[C@H](CO)[C@@H](O[C@@H]8O[C@@H](C)[C@H](O)[C@@H](O)[C@H]8O)[C@H](O)[C@H]7O)[C@@H](O)[C@H](O)[C@H]6O)CC[C@]45C)[C@]3(C)CO)OC[C@H](O)[C@@H]2O)[C@H](O)[C@H](O)[C@H]1O [HEDERACOSIDE C]
Solution: YES

Exercise: Quick check, collision cross section (N2) >= 200 Å²? Oc1cccc2cccnc12 [8-HYDROXYQUINOLINE]
Solution: NO

Exercise: Quick check, collision cross section (N2) >= 200 Å²? C=C1C2CC[C@@]3(C)[C@H](c4ccoc4)OC(=O)C[C@]13O[C@H]1CC(=O)C(C)(C)[C@H](C(O)C(=O)OC)[C@@]21C (stereo partly specified) [6-HYDROXYANGOLENSIC ACID METHYL ESTER]
Solution: YES

Exercise: Quick check, collision cross section (N2) >= 200 Å²? Nc1nc(=O)c2[nH]c(=O)cnc2[nH]1
Solution: NO

* * *

Assignment: determine reported collision cross section (N2) for the given molecules.
Details: [M+H]+; instrument: DT; stepped-field
Write the answer as a number in Å², unit excluded.

Exercise: Which collision cross section (N2) is reported for this molecule? Nc1ccn([C@@H]2O[C@H](CO)[C@@H](OP(=O)(O)O)[C@H]2O)c(=O)n1 [Cytidine 3'-monophosphate]
Solution: 170.98

Exercise: Which collision cross section (N2) is reported for this molecule? CCCCCCCCCCCCCCCC(=O)OC(CC(=O)[O-])C[N+](C)(C)C (centres undefined)
Solution: 216.1

Exercise: Which collision cross section (N2) is reported for this molecule? Cc1cc(O)c2c(c1)C(=O)c1cc(O)cc(O)c1C2=O
Solution: 161.3

Exercise: Which collision cross section (N2) is reported for this molecule? CCCCCCCC/C=C\CCCCCCCC(=O)OC(CC(=O)[O-])C[N+](C)(C)C (centres undefined)
Solution: 218.73

Exercise: Which collision cross section (N2) is reported for this molecule? CC(C)C1(C)N=C(c2ncccc2C(=O)O)NC1=O (centres undefined)
Solution: 157.81

Exercise: Which collision cross section (N2) is reported for this molecule? NC(N)=NCC(=O)O
Solution: 126.88

Exercise: Which collision cross section (N2) is reported for this molecule? NC(N)=NCCCC(=O)O
Solution: 132.8

Exercise: Which collision cross section (N2) is reported for this molecule? Nc1c(Cl)c(Cl)nc(C(=O)O)c1Cl
Solution: 142.83

Exercise: Which collision cross section (N2) is reported for this molecule? CN[C@@H](CCC(=O)O)C(=O)O [N-Methyl-L-glutamate]
Solution: 133.71

Data origin, for the record: the C3SDB collision cross section collection
